# Tested on: UACC-62 melanoma
# test description: NCI-60 one-dose screen, 48 h (100 = growth as untreated, 0 = no growth, -100 = all killed)
# experimental parameters: 10 µM
Compounds without any hit were thinned out: in the full panel of roughly 83,000, 20% have a hit.
Item-by-item account of growth
measured attribute: growth (%)

>>> df
                                   compound               tgt  measurement_unit  value_measured
0           Nc1cc2c(cc1Cl)-c1ccc(Cl)cc1C2=O  UACC-62 melanoma                 %            95.7
1  COc1cc(OC)cc(-c2n/c(=C\c3c(O)[nH]c4ccc(OC)cc34)cc3c2=Nc2ccccc2-3)c1  UACC-62 melanoma                 %             110
2  CCOC(=O)c1c(C)n(-c2ccc(Cl)cc2)c2ccc(OC(=O)/C=C/c3ccccc3)cc12  UACC-62 melanoma                 %            68.1
3                     O=C(O)CN1C(=O)C=CC1=O  UACC-62 melanoma                 %             103
4  COc1cccc(C2(C)Nc3ccccc3-c3nc4ccccc4n32)c1 (stereo not given)  UACC-62 melanoma                 %             102
5  CCOC(=O)[C@@H]1[C@H](c2ccccc2)[C@H]([N+](=O)[O-])[C@H](c2cn(-c3ccccc3)nc2C)N1Cc1ccccc1  UACC-62 melanoma                 %            60.9
6  CCOc1ccc(-n2cc(-c3ccc(N(C)C)cc3)[n+]3c2CCCCC3)cc1  UACC-62 melanoma                 %            20.4
7  CC(C)C[C@H](NC(=O)Cn1ccc2ccccc2c1=O)B(O)O  UACC-62 melanoma                 %            49.8
8  CCOC(=O)c1c(O)c2cc(-c3ccccc3)nc(OCC)c2c(=O)n1C  UACC-62 melanoma                 %            99.9
9  COc1cc(OC)cc(N2CCN(C(=O)Nc3nc4cc(F)ccc4nc3OC)CC2)c1  UACC-62 melanoma                 %            47.9

====

# Test system: HCT-116 colon
# test description: NCI-60 one-dose screen, 48 h (100 = growth as untreated, 0 = no growth, -100 = all killed)
# experimental parameters: 10 µM
Compounds without any hit were thinned out: in the full panel of roughly 83,000, 20% have a hit.
Item-by-item account of growth
measured attribute: growth (%)

In [3]: df
Out[3]:
                                    compound            tgt  value_measured
 0                      O=S(=O)(NCl)c1ccccc1  HCT-116 colon             101
 1         COc1ccc2c(=O)cc(C(Cl)(Cl)Cl)oc2c1  HCT-116 colon            4.23
 2  CC(C)CCN(CCCNc1c2c(nc3cc(Cl)ccc13)CCCC2)CCC(C)C  HCT-116 colon            31.8
 3       COC(=O)c1ccc(Cn2ccc(=O)[nH]c2=O)cc1  HCT-116 colon             104
 4  CCCCNC(=O)Oc1ccc(/C(=C(\C)c2ccc(OC)cc2)c2ccc(OCCN3CCCCC3)cc2)cc1  HCT-116 colon            29.4
 5           COc1ccc(OC)c([N+](=O)[O-])c1C=O  HCT-116 colon            50.7
 6        O=C(/C=C/c1ccc(Cl)cc1)c1ccc(Br)cc1  HCT-116 colon            75.5
 7  COc1ccc(/C=C2\CCC3C(CCCC34OCCO4)C2=O)cc1 (stereo not given)  HCT-116 colon            92.4
 8           O=C(Nc1cccc(C(F)(F)F)c1)C(Cl)Cl  HCT-116 colon            98.1
 9  COc1ccc(-c2[nH]ncc2-c2cc(OC)c(OC)c(OC)c2)cc1  HCT-116 colon            2.61
10             CC(=O)Nc1nc(C)c(C(=O)NNC=O)s1  HCT-116 colon             121
11  c1ccc(COCC[P+](c2ccccc2)(c2ccccc2)c2ccccc2)cc1  HCT-116 colon            5.42
12                     CC(C)/C(=N/O)c1ccccc1  HCT-116 colon             109
13  CCCCn1c(=O)[nH]c(N)c(C(c2ccc(Cl)cc2)c2c(N)[nH]c(=O)n(CCCC)c2=O)c1=O  HCT-116 colon            27.3
14  O=C(Nc1ccc(CN2CCOCC2)cc1)c1ccc(-c2cc(Cl)ccc2Cl)o1  HCT-116 colon            22.3
15    Cc1ccc(C)c2c1sc1nc3n[nH]c(N)c3c(=N)n12  HCT-116 colon             101
16           Nc1cc2c(cc1Cl)-c1ccc(Cl)cc1C2=O  HCT-116 colon            76.4
17  O=C(Nc1cccc(Cl)c1)Nc1cc2ncncc2cc1OCc1cccc(F)c1  HCT-116 colon            8.63
18  CCOc1nc(-c2ccccc2)cc2c(O)c(C(=O)NCCCO)[nH]c(=O)c12  HCT-116 colon            98.9
19  Cc1ccc2nc(-c3ccc(OCC(=O)N=Nc4c(O)[nH]c5ccccc45)cc3)[nH]c2c1  HCT-116 colon           -20.5
20         CC(C)(C)c1ccc(OCCCCCCN2CCNCC2)cc1  HCT-116 colon            8.35
21  CNC(=S)Sc1ccc([N+](=O)[O-])cc1[N+](=O)[O-]  HCT-116 colon            27.7
22   O=c1ccc2nc(-c3ccccc3)nn(-c3ccccc3)c-2c1  HCT-116 colon           -90.7
23             [O-]c1c[n+](-c2ccc(Cl)cc2)no1  HCT-116 colon             102
24  N#Cc1cnc2ccc(NCc3cnc[nH]3)cc2c1Nc1ccc(F)c(Cl)c1  HCT-116 colon            56.1
25      CCCCCc1cc[n+](CC(=O)c2ccc(Cl)cc2)cc1  HCT-116 colon              59
26  CCOC(=O)Nc1ccc2c(c1)C(=O)N(CCOC)c1ccccc1O2  HCT-116 colon            24.4
27    Cc1ccc2nc3[nH]c(=O)[nH]c(=O)c3c(N)c2c1  HCT-116 colon            80.6
28  C[N+]1(CC2CO2)CCCCCC1 (stereo not given)  HCT-116 colon             103
29         CCSc1nc2c([nH]1)c(=O)n(C)c(=S)n2C  HCT-116 colon             114
30  COc1cccc(C(=O)N(c2ccc(F)c(F)c2)C(C(=O)NC(C)(C)C)c2cc3c(C)cc(C)cc3nc2Cl)c1 (stereo not given)  HCT-116 colon            34.8
31  Oc1ccc(Cn2cc3c(c2-c2ccccc2)CCc2cnoc2-3)cc1  HCT-116 colon            92.7
32  CC(=O)Oc1ccc(C2=Cc3ccc(OC(C)=O)cc3OC2C)cc1 (stereo not given)  HCT-116 colon            38.3
33  O=C(NCc1cn(Cc2cccc(Oc3ccccc3)c2)nn1)c1cccnc1Nc1ccccc1  HCT-116 colon            26.1
34  NC1CCC(Nc2nc(NCc3cc(Cl)ccc3O)c3ncn(C4CCCC4)c3n2)CC1 (stereo not given)  HCT-116 colon           -17.6
35  Nc1ccc(Sc2ccc3c4c2cccc4c(=O)n2c4ccccc4nc32)cc1  HCT-116 colon            46.8
36            Nc1ccc2c(c1)Cc1cc(N)c(Cl)cc1-2  HCT-116 colon             100
37  Cc1cc(C)c(/C=C2\C(=O)Nc3ccc(NC(=O)CCCCCCC(=O)NO)cc32)[nH]1  HCT-116 colon           -77.2
38    CCN(Cc1ccccc1)C1CCN(Cc2cc(Br)ccc2O)CC1  HCT-116 colon            38.7
39  COc1ccc(-c2cc(/C=C3\C(=O)Nc4cc(Cl)ccc43)[nH]n2)cc1  HCT-116 colon            26.2
40  COc1cccc(-c2nnc(COc3ccc(-c4nc5ccccc5[nH]4)cc3OC)o2)c1  HCT-116 colon              73
41    CN(C)CCCN1c2ccccc2Sc2ccc(C(F)(F)F)cc21  HCT-116 colon            1.99
42  C[N+]1=C(/C=C/c2ccc(I)cc2)C(C)(C)c2ccccc21  HCT-116 colon            87.2
43  COc1ccc(-c2nc(NC(=O)CS(=O)(=O)c3ccc(F)cc3)sc2C)cc1  HCT-116 colon            44.7
44  C[C@H](NC(=O)[C@@H]1CSSC[C@@H](NC(=O)Cc2nc3ccccc3cc2O)C(=O)NCC(=O)N1C)c1ccccc1  HCT-116 colon            44.7
